The reported measurements were obtained from patent US5086053A.

As shown below, each of these compounds has a reported change in vivo at 3 mg/kg value.
System: M1 central muscarinic cholinergic receptors
protocol_notes: Antagonism to rotatory behaviour induced by intrastriatal injection of pirenzepine in the mouse
Type: in vivo, mouse (female, Swiss, CD 1)
conditions: Mus musculus, po; 3 mg/kg p.o., 4 hours before pirenzepine 1 μg intrastriatal; *p<0.05, **p<0.01 Student's test; read-out: % inhibition of pirenzepine-induced rotations
Give the number first and the unit second.

Sample answers from the record:
[[record]]
compound = "Fc1ccc(-c2nnc(NCc3cccnc3)s2)cc1 [SR 45447 A]"
measured_parameter = "change in vivo at 3 mg/kg"
result = "-62%"

[[record]]
compound = "Clc1ccc(-c2nnc(NCCc3ccccn3)s2)c(Cl)c1 [SR 45492 A]"
measured_parameter = "change in vivo at 3 mg/kg"
result = "-50%"

[[record]]
compound = "Clc1ccc(-c2nnc(NCc3cccnc3)s2)cc1 [SR 45488 A]"
measured_parameter = "change in vivo at 3 mg/kg"
result = "-49%"

[[record]]
compound = "CN1CCCC1CCNc1nnc(-c2ccc(Cl)cc2Cl)s1 (stereo not drawn) [SR 45490 A]"
measured_parameter = "change in vivo at 3 mg/kg"
result = "-73%"

[[record]]
compound = "CN(C)CCCNc1nnc(-c2ccccc2)s1 [SR 44824 A]"
measured_parameter = "change in vivo at 3 mg/kg"
result = "-27%"


Consider the record given below.
QUERY: Report change in vivo at 3 mg/kg for Fc1ccc(-c2nnc(NCc3ccncc3)s2)cc1 [SR 45482 A]
RESULT: -53%
